# TEST SYSTEM: recombinant murine VEGF164 (mouse) (UniProt Q00731)
# ASSAY COMMENT: Biacore SPR; ratio to hVEGF165
Listing of entries alongside the reported relative value KdhVEGF165/KdmVEGF164.
Reply: number alone, nothing else.

- BINDER: "578min_max T84N_V89L (scFv, the VH entry already carries T84N and V89L; tied by name; also called Protein No. 1008) scFv: EIVMTQSPSTLSASVGDRVIITCQASEIIHSWLAWYQQKPGKAPKLLIYLASTLASGVPSRFSGSGSGAEFTLTISSLQPDDFATYYCQNVYLASTNGANFGQGTKLTVLGGGGGSGGGGSGGGGSGGGGSEVQLVESGGGLVQPGGSLRLSCTASGFSLTDYYYMTWVRQAPGKGLEWVGFIDPDDDPYYATWAKGRFTISRDNSKNTLYLQMNSLRAEDTAVYYCAGGDHNSGWGLDIWGQGTLVTVSS"
  relative value KdhVEGF165/KdmVEGF164: 1
- BINDER: "578min_max T84N_V89L_DHP (scFv) scFv: EIVMTQSPSTLSASVGDRVIITCQASEIIHSWLAWYQQKPGKAPKLLIYLASTLASGVPSRFSGSGSGAEFTLTISSLQPDDFATYYCQNVYLASTNGANFGQGTKLTVLGGGGGSGGGGSGGGGSGGGGSEVQLVESGGGSVQPGGSLRLSCTASGFSLTDYYYMTWVRQAPGKGLEWVGFIDPDDDPYYATWAKGRFTISRDNSKNTLYLQMNSLRAEDTATYYCAGGDHNSGWGLDIWGQGTTVTVSS"
  relative value KdhVEGF165/KdmVEGF164: 1.8
- BINDER: "578minmax (scFv, also called ESBA903; 903) scFv: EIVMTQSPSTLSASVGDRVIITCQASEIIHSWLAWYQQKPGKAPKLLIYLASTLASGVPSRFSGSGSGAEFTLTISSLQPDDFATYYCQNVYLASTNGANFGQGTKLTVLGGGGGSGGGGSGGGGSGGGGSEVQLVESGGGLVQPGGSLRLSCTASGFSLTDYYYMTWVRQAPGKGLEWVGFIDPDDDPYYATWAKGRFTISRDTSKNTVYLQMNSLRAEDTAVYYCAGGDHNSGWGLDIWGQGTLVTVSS"
  relative value KdhVEGF165/KdmVEGF164: 1.1

API: the following record is the query input.
response.value for 578minmax FW1.4_DHP (scFv, tied by name only) scFv: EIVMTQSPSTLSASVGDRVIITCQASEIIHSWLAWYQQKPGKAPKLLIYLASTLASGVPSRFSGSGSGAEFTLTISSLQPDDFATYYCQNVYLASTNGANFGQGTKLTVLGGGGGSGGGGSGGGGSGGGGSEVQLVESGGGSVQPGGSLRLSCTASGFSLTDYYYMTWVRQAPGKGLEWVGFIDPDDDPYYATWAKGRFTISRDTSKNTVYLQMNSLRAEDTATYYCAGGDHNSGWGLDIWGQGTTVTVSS (field: relative value KdhVEGF165/KdmVEGF164) = 0.9

# credit: patent US20150274820A1
